test: gradient 5% acetonitrile 3 min, to 50% in 2 min, to 85% in 15 min, held 3 min, 100 µL/min; settings: column: Zorbax Extend-C18 2.1 x 50 mm; eluents: water / acetonitrile, 0.1% formic acid
VALUE_KIND: RP-LC retention time (s)

- COMPOUND: "CCN1CCN(CCCNC(=O)Cn2c3ccccc3c3cnn(C)c(=O)c32)CC1"
  RESULT_VALUE: 560
- COMPOUND: "COc1cccc(NC(=O)Cn2nc3cc(C)nc(Nc4ccccc4C)n3c2=O)c1"
  RESULT_VALUE: 1010
- COMPOUND: "CCCCN(CC)C(=O)c1cc(NC(=O)CC(C)C)cnc1N1CCNCC1"
  RESULT_VALUE: 632
- COMPOUND: "Fc1ccc(-c2nc(-c3ccc4c(c3)ncn4CCN3CCOCC3)no2)cc1"
  RESULT_VALUE: 632
- COMPOUND: "Cc1cc(C)cc(C(=O)N2CCCC(C(=O)NCCc3ccco3)C2)c1 (configuration not stated)"
  RESULT_VALUE: 836
- COMPOUND: "CCc1ccc(Nc2nc(C(=O)N3CCOCC3)nc3ccccc23)cc1"
  RESULT_VALUE: 771
- COMPOUND: "C=Cc1ccc(CN2CCCN(c3ncccc3-c3nc(C(C)C)no3)CC2)cc1"
  RESULT_VALUE: 785
- COMPOUND: "CCc1nc(OCC(=O)NCCCOC)c2c(-c3ccc(F)cc3)noc2n1"
  RESULT_VALUE: 890
- COMPOUND: "O=C1NC(C(=O)NC2CCCC2)Cn2cccc21 (configuration not stated)"
  RESULT_VALUE: 628
- COMPOUND: "c1ccc(CSc2ccc(-c3ccc4c(c3)OCO4)nn2)nc1"
  RESULT_VALUE: 617
- COMPOUND: "O=C([C@@H]1C[C@H](Oc2ccccc2)CN1C(=O)c1ccoc1)N1CCCC1"
  RESULT_VALUE: 733
- COMPOUND: "CCOc1ccc(C(=O)N2CCC(n3c(-c4ccoc4)nc4cccnc43)C2)cc1 (configuration not stated)"
  RESULT_VALUE: 756
- COMPOUND: "Cc1sc(-c2cc(C(F)(F)F)[nH]n2)cc1S(=O)(=O)NC1CCCC1"
  RESULT_VALUE: 1000
- COMPOUND: "Cc1ccc(CNC(=O)CCCn2c3ccccc3c3cnn(C)c(=O)c32)o1"
  RESULT_VALUE: 814
- COMPOUND: "CCN(CC)CCNC(=O)CSc1cc(=O)n(C)c2cc(Cl)ccc12"
  RESULT_VALUE: 622
- COMPOUND: "Cc1cccn2cc(C(=O)NCc3ccc(N(C)C)cc3)nc12"
  RESULT_VALUE: 565
- COMPOUND: "CCOC(=O)C1CCCN(C(=O)c2ccc(-c3csc(CC)n3)cc2)C1 (configuration not stated)"
  RESULT_VALUE: 925
- COMPOUND: "O=C(NCCS(=O)(=O)N1CCc2ccccc2C1)C1CC(=O)N(c2ccc(F)cc2)C1 (configuration not stated)"
  RESULT_VALUE: 732
- COMPOUND: "CCCc1ccc(S(=O)(=O)N2CCC3(CC2)NCCN=C3NCc2ccccc2)cc1"
  RESULT_VALUE: 809
- COMPOUND: "O=C(NCCCOC(=O)c1ccccc1)c1ccncc1"
  RESULT_VALUE: 613
- COMPOUND: "CCN1C(=O)COc2ccc(-c3noc(CNC(=O)Cc4ccc(Cl)cc4)n3)cc21"
  RESULT_VALUE: 859
- COMPOUND: "CCOC(=O)c1c(C)[nH]c(CCC(=O)NCCc2ccco2)c1C"
  RESULT_VALUE: 788
- COMPOUND: "CC(C)(C)CC(C)(C)n1nnnc1N"
  RESULT_VALUE: 771
- COMPOUND: "Cc1ccn2cc(C(=O)NCCN3CCc4ccccc4C3)nc2c1"
  RESULT_VALUE: 565
- COMPOUND: "COc1ccccc1OCCC1CCN(S(=O)(=O)c2c(C)nn(C)c2C)C1 (configuration not stated)"
  RESULT_VALUE: 861
- COMPOUND: "O=C(C1CC1)N1CCCn2nc(-c3cccc(F)c3)cc2C1"
  RESULT_VALUE: 784
- COMPOUND: "O=C(CCc1csc2nc(-c3ccc(Cl)cc3)cn12)Nc1nccs1"
  RESULT_VALUE: 774
